Cited source: PubChem BioAssay AID1963871

tested on: KRAS-mutant PDC multicell tumor spheroid viability; test: Anticancer human tumor 521955-158-R2-J5-PDC patient-derived pancreatic carcinoma cell line growth inhibition [KRAS2]; conditions: second compound 3.16 µM; first compound 0.01 µM; active compounds read low;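 also: viability read after seven days of drug exposure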

| compound | unit annotation | viability, T/C |
| --- | --- | --- |
| CC1COCCN1c1cc(-c2ccnn2C)c2ccnc(-c3ccn[nH]3)c2n1 (configuration not stated) + CNCc1ccccc1-c1csc(C(C)Nc2nc(C)nc3cc(OC)c(OC)cc23)c1 | % | 0.3 |
| CN(C)C/C=C/C(=O)Nc1cc2c(Nc3ccc(F)c(Cl)c3)ncnc2cc1O[C@H]1CCOC1 + CNCc1ccccc1-c1csc(C(C)Nc2nc(C)nc3cc(OC)c(OC)cc23)c1 | % | 0.26 |
| CCN1CCN(Cc2ccc(Nc3ncc(F)c(-c4cc(F)c5nc(C)n(C(C)C)c5c4)n3)nc2)CC1 + CC1OCC2(CCN(c3cnc(Sc4ccnc(N)c4Cl)c(N)n3)CC2)C1N | % | 67.9 |
| CC(=O)Nc1cccc(-n2c(=O)n(C3CC3)c(=O)c3c(Nc4ccc(I)cc4F)n(C)c(=O)c(C)c32)c1 + C=CC(=O)N1CCN(c2nc(=O)n(-c3c(C)ccnc3C(C)C)c3nc(-c4c(O)cccc4F)c(F)cc23)C(C)C1 | % | 29.5 |
| CC1COCCN1c1cc(-c2ccnn2C)c2ccnc(-c3ccn[nH]3)c2n1 (configuration not stated) + C=CC(=O)N1CCN(c2nc(=O)n(-c3c(C)ccnc3C(C)C)c3nc(-c4c(O)cccc4F)c(F)cc23)C(C)C1 | % | 79.2 |
| Cn1ncnc1[C@H]1c2n[nH]c(=O)c3cc(F)cc(c23)N[C@@H]1c1ccc(F)cc1 + CC1OCC2(CCN(c3cnc(Sc4ccnc(N)c4Cl)c(N)n3)CC2)C1N | % | 44.5 |
| CC(C)n1nc(-c2ccc3oc(N)nc3c2)c2c(N)ncnc21 + CNCc1ccccc1-c1csc(C(C)Nc2nc(C)nc3cc(OC)c(OC)cc23)c1 | % | 0.49 |
| CCN1CCN(Cc2ccc(Nc3ncc(F)c(-c4cc(F)c5nc(C)n(C(C)C)c5c4)n3)nc2)CC1 + C=CC(=O)N1CCN(c2nc(OCC3CCCN3C)nc3c2CCN(c2cccc4cccc(C)c24)C3)CC1CC#N | % | 19.5 |
| CC(=O)OC12COC1CC(O)C1(C)C(=O)C(O)C3=C(C)C(OC(=O)C(O)C(NC(=O)OC(C)(C)C)c4ccccc4)CC(O)(C(OC(=O)c4ccccc4)C21)C3(C)C (configuration not stated) + C=CC(=O)N1CCN(c2nc(=O)n(-c3c(C)ccnc3C(C)C)c3nc(-c4c(O)cccc4F)c(F)cc23)C(C)C1 | % | 17.5 |
| CN(C)C/C=C/C(=O)Nc1cc2c(Nc3ccc(F)c(Cl)c3)ncnc2cc1O[C@H]1CCOC1 + C=CC(=O)N1CCN(c2nc(=O)n(-c3c(C)ccnc3C(C)C)c3nc(-c4c(O)cccc4F)c(F)cc23)C(C)C1 | % | 77 |
| CC(=O)OC12COC1CC(O)C1(C)C(=O)C(O)C3=C(C)C(OC(=O)C(O)C(NC(=O)OC(C)(C)C)c4ccccc4)CC(O)(C(OC(=O)c4ccccc4)C21)C3(C)C (configuration not stated) + CNCc1ccccc1-c1csc(C(C)Nc2nc(C)nc3cc(OC)c(OC)cc23)c1 | % | 0.16 |
| CCN1CCN(Cc2ccc(Nc3ncc(F)c(-c4cc(F)c5nc(C)n(C(C)C)c5c4)n3)nc2)CC1 + COc1cc2nc(C)nc(NC(C)c3cc(N)cc(C(F)(F)F)c3)c2cc1OC1CCOC1 | % | 101 |
| CC(=O)Nc1cccc(-n2c(=O)n(C3CC3)c(=O)c3c(Nc4ccc(I)cc4F)n(C)c(=O)c(C)c32)c1 + CNCc1ccccc1-c1csc(C(C)Nc2nc(C)nc3cc(OC)c(OC)cc23)c1 | % | 0.95 |
| CC1COCCN1c1cc(-c2ccnn2C)c2ccnc(-c3ccn[nH]3)c2n1 (configuration not stated) + CC1OCC2(CCN(c3cnc(Sc4ccnc(N)c4Cl)c(N)n3)CC2)C1N | % | 59.9 |
| CC(=O)OC12COC1CC(O)C1(C)C(=O)C(O)C3=C(C)C(OC(=O)C(O)C(NC(=O)OC(C)(C)C)c4ccccc4)CC(O)(C(OC(=O)c4ccccc4)C21)C3(C)C (configuration not stated) + COc1cc2nc(C)nc(NC(C)c3cc(N)cc(C(F)(F)F)c3)c2cc1OC1CCOC1 | % | 14 |
| CN(C)C/C=C/C(=O)Nc1cc2c(Nc3ccc(F)c(Cl)c3)ncnc2cc1O[C@H]1CCOC1 + CC1OCC2(CCN(c3cnc(Sc4ccnc(N)c4Cl)c(N)n3)CC2)C1N | % | 49 |
| CC(C)n1nc(-c2ccc3oc(N)nc3c2)c2c(N)ncnc21 + CC1OCC2(CCN(c3cnc(Sc4ccnc(N)c4Cl)c(N)n3)CC2)C1N | % | 29.4 |
| CC(=O)OC12COC1CC(O)C1(C)C(=O)C(O)C3=C(C)C(OC(=O)C(O)C(NC(=O)OC(C)(C)C)c4ccccc4)CC(O)(C(OC(=O)c4ccccc4)C21)C3(C)C (configuration not stated) + CC1OCC2(CCN(c3cnc(Sc4ccnc(N)c4Cl)c(N)n3)CC2)C1N | % | 21.2 |
| CC(C)n1nc(-c2ccc3oc(N)nc3c2)c2c(N)ncnc21 + COc1cc2nc(C)nc(NC(C)c3cc(N)cc(C(F)(F)F)c3)c2cc1OC1CCOC1 | % | 35.8 |
| Cn1ncnc1[C@H]1c2n[nH]c(=O)c3cc(F)cc(c23)N[C@@H]1c1ccc(F)cc1 + C=CC(=O)N1CCN(c2nc(=O)n(-c3c(C)ccnc3C(C)C)c3nc(-c4c(O)cccc4F)c(F)cc23)C(C)C1 | % | 75.2 |
| CC(C)n1nc(-c2ccc3oc(N)nc3c2)c2c(N)ncnc21 + C=CC(=O)N1CCN(c2nc(=O)n(-c3c(C)ccnc3C(C)C)c3nc(-c4c(O)cccc4F)c(F)cc23)C(C)C1 | % | 29.7 |
| CCN1CCN(Cc2ccc(Nc3ncc(F)c(-c4cc(F)c5nc(C)n(C(C)C)c5c4)n3)nc2)CC1 + C=CC(=O)N1CCN(c2nc(=O)n(-c3c(C)ccnc3C(C)C)c3nc(-c4c(O)cccc4F)c(F)cc23)C(C)C1 | % | 99.4 |
